Measured EC50 of individual entries
# Assay system: Heat shock factor protein 1 (Mus musculus, UniProt P38532)
# Sequence (P38532 whole entry): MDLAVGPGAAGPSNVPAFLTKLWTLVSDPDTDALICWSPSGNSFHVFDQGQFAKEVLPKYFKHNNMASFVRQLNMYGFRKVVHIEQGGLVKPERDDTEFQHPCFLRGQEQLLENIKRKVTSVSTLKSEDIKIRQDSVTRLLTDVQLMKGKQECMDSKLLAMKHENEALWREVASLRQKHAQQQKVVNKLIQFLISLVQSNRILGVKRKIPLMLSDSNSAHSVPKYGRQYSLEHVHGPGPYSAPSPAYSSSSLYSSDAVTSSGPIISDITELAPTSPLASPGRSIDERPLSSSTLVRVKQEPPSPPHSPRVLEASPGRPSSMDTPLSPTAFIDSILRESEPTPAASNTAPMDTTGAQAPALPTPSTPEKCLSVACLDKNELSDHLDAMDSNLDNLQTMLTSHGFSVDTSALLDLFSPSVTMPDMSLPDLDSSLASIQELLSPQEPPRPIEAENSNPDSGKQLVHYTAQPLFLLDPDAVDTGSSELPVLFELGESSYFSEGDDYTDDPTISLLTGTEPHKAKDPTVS
# Measurement protocol: inhibition of MG132-induced HSE-luciferase signal, confirmation, cell-based, NIH3T3, luminescence, dose retest (AID 2382);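 also: NIH3T3 fibroblasts with HSF1-driven luciferase reporter stressed by proteasome inhibitor MG132; luminescence from HSF1-driven luciferase expression after 8 hours of MG132 stress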
# Assay type: functional
Where a name gives a salt, the structure may show the parent alone. The source made the active and inactive calls. Rule as the data show it: actives have a measured EC50 and inactives only a lower limit.
Observed property: EC50

Compound | Observed
CC(=O)Nc1ccc(S(=O)(=O)NCc2ccc(C(=O)NCc3ccc4c(c3)OCO4)cc2)cc1 | > 195 µM (not active)
Cc1ccsc1/C=C1\C(=O)NC(=S)N(C)C1=O | > 195 µM (not active)
Cc1cc(NC(=O)C2C3C(=O)N(Cc4ccc(Cl)cc4)C(C(=O)NC(C)(C)C)C34C=CC2(C)O4)no1 (centres undefined) | > 195 µM (not active)
CCN(CC)CCOC(=O)c1ccc(N)cc1 [PROCAINE HYDROCHLORIDE] | > 195 µM (not active)
Cc1sc2ncnc(N3CCC(C(=O)Nc4nc(-c5cccs5)cs4)CC3)c2c1C | 1.07 µM (active)
O=C(NC1CCCCC1)C1CCN(c2nccs2)CC1 | > 195 µM (not active)
Cc1cc(C)c2c(c1)/C(=N/NS(=O)(=O)c1ccc(Br)cc1)CCC2 | > 195 µM (not active)
CN(C(=O)OC(C)(C)C)c1ccc(-c2nc3ccccc3s2)cc1 | < 0.16 µM (active)
CCCCC(=O)Nc1sc(C(=O)N(CC)CC)c(C)c1C(=O)OC | > 195 µM (not active)

Data origin, for the record: ChEMBL document CHEMBL1201862
